Below, each entry is listed alongside its reported % Cell Death.
# protocol-description: MMV: MTT Cytotoxicity Assay Day 3 pi, U87-CD4-CCR5 cells, % cell death @ 5mM compound
# Type: toxicity, cell-based
# condition-description: human, u87-cd4-ccr5, 5000 µM
assay-endpoint: % Cell Death

>>> print(df.to_string())
                                    molecule  value_reported
 0  CC1CCCCN1CCCNC(=O)c1ccc2c(c1)sc1nc(-c3ccc(F)cc3)cn12 (configuration not stated)             -29
 1  CC(O)(c1ccc(Cl)cc1)C(CN1CCCCC1)c1ccccc1.Cl (configuration not stated)             -11
 2  COc1cc(OC)cc(N2C(=O)N(Cc3ccc(C(C)(C)C)cc3)c3ccccc3S2(=O)=O)c1              34
 3  O=C(CCc1ccco1)NC1CCN(CC2(c3ccc(Cl)cc3)CCC2)CC1              18
 4  CCN(CC)CCNc1ccnc2cc3ccccc3cc12.O=P(O)(O)O              33
 5  COc1ccc(NC(=O)C2c3ccccc3C(=O)N(CC(C)C)C2c2cccs2)cc1 (configuration not stated)              16
 6  O=C(CSc1ccc2nnc(-c3cccc(F)c3)n2n1)Nc1ccc2c(c1)OCO2              82
 7  CCN1CCN(c2cc(C)c3cc(NC(=O)c4ccc(OC)c(OC)c4)ccc3n2)CC1              95
 8  O=C(NC1CCN(Cc2ccccc2)CC1)c1cc2nc(-c3ccc(Cl)s3)cc(C(F)(F)F)n2n1              -2
 9  O=C(Nc1ccccc1O)c1ccc(Oc2cccc(C(=O)Nc3ccccc3O)c2)cc1              43
10  Cc1ccc(C)c(Cn2c(N3CCC(C(=O)NCc4cccs4)CC3)nc3ccccc32)c1             108
11  Oc1ccc(-c2nc(-c3ccc4oc5ccc(-c6[nH]c(-c7ccc(O)cc7)nc6-c6ccccc6)cc5c4c3)c(-c3ccccc3)[nH]2)cc1              -2
12  COc1ccc2c(c1)OC(O)(C(F)(F)C(F)(F)F)CC2=O (configuration not stated)              42
13  OC1CCCCC1C1(NC(=S)Nc2ccccc2)CCCCC1 (configuration not stated)              23
14  O=C(Nc1cccc(-c2nc3ccccc3[nH]2)c1)c1cccc(NC(=O)c2ccco2)c1              -8
15  CCOc1ccccc1CNC(=O)C1c2ccccc2C(=O)N(CC(C)C)C1c1cccs1 (configuration not stated)             -26
16  COc1ccc(-n2ccnc2SCC(=O)Nc2cc(C)ccc2C)c(OC)c1              18
17        O=C(Nc1nc(-c2ccccn2)cs1)c1ccccc1Br              -1
18  O=C(Nc1ccc(Cl)cc1C(=O)Nc1ccncc1)c1ccc(Cl)cc1Cl               0
19  CC(C)(C)c1ccc(C(=O)Nc2c3c(nn2-c2cccc(Cl)c2)CSC3)cc1               7
20  FC(F)(F)c1cccc(CNC2CCN(CCc3ccccc3)CC2)c1             -16
21                O=C(CCl)NCCOc1ccc(Cl)cc1Cl              15
22      COc1cccc(Nc2nc(NCCO)c3ccccc3n2)c1.Cl              15
23  COc1ccc(C2C(C(=O)Nc3cccc(OC)c3)c3ccccc3C(=O)N2C2CCCCC2)cc1 (configuration not stated)             -65
24  COc1cc(C(=O)Nc2ccc(-c3nc4ccccc4[nH]3)cc2)cc(OC)c1OC             -27
25  COc1ccc(-c2nc(N3CCN(C(=O)C4CCCCC4)CC3)c3c4c(sc3n2)CCCC4)cc1               2
26  COc1cc(OC)cc(C(=O)Nc2ccc(-c3nc4ccccc4[nH]3)cc2)c1              47
27  c1ccc2c(NCCc3c[nH]c4ccccc34)c3ccccc3nc2c1              64
28     CN1CCN(c2ncnc3c2[nH]c2ccc(Cl)cc23)CC1             -11
29  O=C(Cc1ccccc1)NC(c1ccc(Cl)cc1)c1c(O)ccc2ccccc12 (configuration not stated)              11
30  COc1ccc(C(=O)NC(c2ccc(Cl)cc2Cl)c2cc(Cl)c3cccnc3c2O)cc1 (configuration not stated)              42
31  COc1ccc(-c2nc3cc(Cc4ccc5[nH]c(-c6ccc(OC)cc6)nc5c4)ccc3[nH]2)cc1              -6
32  CCOC(=O)C1CCN(C(=O)CN2C(=O)c3ccccc3C2c2c[nH]c3ccccc23)CC1 (configuration not stated)             107
33  CCC(O)c1ccc(Br)cc1NC(=O)c1cccc(Cl)c1 (configuration not stated)             -44
34  CCCCCn1c(=N)n(CC(O)COc2cccc(C)c2)c2ccccc21.Cl (configuration not stated)              99
35  FC(F)(F)c1cccc(Nc2nc3ccccc3nc2Nc2cccc(C(F)(F)F)c2)c1             -15
36  CCOc1c(Cl)cc(CNC(C)C(O)c2ccccc2)cc1OC (configuration not stated)              -4
37     O=C1c2ccccc2-c2nnc(-c3ccc(Br)cc3)cc21               2
38  CC1(c2ccccc2)Nc2ccccc2-c2nc3ccccc3n21 (configuration not stated)              10
39  CC(C)(C)CC(C)(C)NCC(O)COc1ccc(Cl)cc1Cl (configuration not stated)              -7
40  Cc1ccc2c(C)nc(Nc3nc(C)cc(-c4ccccc4)n3)nc2c1             107
41  Cc1ccc(-c2nc3ccccc3o2)cc1NCc1cc(Cc2ccccc2)ccc1O              27
